target: REV-ERBα LBD (human; residues 281-614 Δ324-422) (Homo sapiens, UniProt P20393, DEL324-422); construct: 6×Histag-REV-ERBα LBD (human; residues 281-614 Δ324-422); made in house; host or cells: Escherichia coli; experiment: TR-FRET corepressor interaction assay (REV-ERBα LBD, FITC-SMRT peptide); assay type: biochemical; details: Table 2, read-out: REVERBα agonism (EC50 class, FRET assay)
Sequence (P20393 with tags, fused parts or gaps DEL324-422): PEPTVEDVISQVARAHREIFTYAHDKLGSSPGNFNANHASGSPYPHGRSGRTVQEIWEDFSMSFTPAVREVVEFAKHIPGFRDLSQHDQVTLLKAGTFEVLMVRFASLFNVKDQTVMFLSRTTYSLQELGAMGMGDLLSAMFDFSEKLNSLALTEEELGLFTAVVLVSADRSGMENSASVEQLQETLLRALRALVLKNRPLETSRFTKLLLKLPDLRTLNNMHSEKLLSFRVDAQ
Sequence (Q9Y618 2335-2356 partner limits assumed): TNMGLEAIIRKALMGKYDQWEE
pEC50: −log10 of the molar value.
reported endpoint: pEC50

* COC(C)(C)Cn1cc([C@H](NS(=O)(=O)C2CCC2)C(F)(F)F)c2ccc(-c3ccccc3C(F)(F)F)nc21 | > 6.30
* CC(C)Cn1cc(CCNS(=O)(=O)N(C)C)c2ccc(-c3ccoc3)cc21 | > 6.30
* CC(C)Cn1cc(CCNS(=O)(=O)N(C)C)c2ccc(-c3cccnc3)cc21 | > 6.30
* CC(C)(C)Cc1cn(CCNS(=O)(=O)C2CC2)c2ccc(-c3ccccc3Cl)cc12 | > 6.30

Prompt: Give pEC50 for `CC(C)(C)Cn1cc([C@H](NS(=O)(=O)C2CC2)C(F)(F)F)c2ccc(-c3cccc(F)c3C#N)cc21` tested on REV-ERBα LBD (human; residues 281-614 Δ324-422) (Homo sapiens, UniProt P20393, DEL324-422).
Response: 5.52 to 6.30

Prompt: State, for REV-ERBα LBD (human; residues 281-614 Δ324-422) (Homo sapiens, UniProt P20393, DEL324-422), measured pEC50 of the compound listed here: `CC(C)(C)Cn1cc([C@H](NS(=O)(=O)C2CCCC2)C(F)(F)F)c2cc(F)c(-c3ccccc3C(F)(F)F)cc21`
Response: 5.52 to 6.30

Prompt: Please indicate recorded pEC50 of `CC(C)Cn1cc(CCNS(=O)(=O)N(C)C)c2ccc(-c3cccc(-c4ccccc4)c3)cc21` measured with REV-ERBα LBD (human; residues 281-614 Δ324-422) (Homo sapiens, UniProt P20393, DEL324-422).
Response: 5.52 to 6.30

----------
biological target: REV-ERBα LBD (human; residues 281-614 Δ324-422) (Homo sapiens, UniProt P20393, DEL324-422); construct: 6×Histag-REV-ERBα LBD (human; residues 281-614 Δ324-422); made in house; host or cells: Escherichia coli; assay: TR-FRET corepressor interaction assay (REV-ERBα LBD, FITC-SMRT peptide); assay type: biochemical; details: FITC-SMRT peptide, read-out: REVERBα agonism (EC50 class, FRET assay)
pEC50: −log10 of the molar value.
reported endpoint: pEC50

Take a look at these entries with their results.
- CC(C)(C)Cn1cc([C@H](NS(=O)(=O)C2CCC2)C(F)(F)F)c2ccc(-c3ccccc3C(F)(F)F)cc21 [Example 494]: > 6.30
- CC(C)(C)Cn1cc([C@H](NS(=O)(=O)C2CC2)C(F)(F)F)c2ccc(-c3ccccc3C(F)(F)F)nc21 [Example 491]: > 6.30
- CC(C)(O)Cn1cc([C@H](NS(=O)(=O)C2CC2)C(F)(F)F)c2cc(F)c(-c3ccccc3C(F)(F)F)cc21 [Example 474]: 5.52 to 6.30

From here, focus on the item given below.
Prompt: Hello, please tell me recorded pEC50 for this one: CC(C)(C)Cn1cc([C@H](NS(=O)(=O)C2CCC2)C(F)(F)F)c2ccc(-c3c(F)cccc3C(F)(F)F)cc21 [Example 496]
Response: > 6.30
